Reference source: patent US20260125382A1

molecular target: CDK2 (Homo sapiens, UniProt P24941); construct: endogenous in cells; host or cells: MDA-MB-231; assay: CDK protein degradation activity (Western blotting), CDK2; assay type: cell-based; settings: MDA-MB-231 cells, 0.1 μM, 16 hours, Western blot
metricName: Enzyme degradation CDK2 (% remaining) @ 0.1 μM (%)

Below, each entry is followed by its recorded Enzyme degradation CDK2 (% remaining) @ 0.1 μM result.
compound: Cc1cccc(C(=O)N[C@H]2C[C@@H](n3cnc4c(NCc5cccc(OCC6CCN(C(=O)CNc7ccc8c(c7)C(=O)N(C7CCC(=O)NC7=O)C8=O)CC6)c5)ncnc43)C2)n1 (some centres unmarked) [Compound 96]
readoutNumber: 60
//
compound: O=C1CC[C@H](N2C(=O)c3cccc(NCC(=O)N4CCN(CC5CCN(c6ccc(Nc7ncnc8c7ncn8[C@H]7C[C@@H](NC(=O)c8c(Cl)cccc8Cl)C7)cc6)CC5)CC4)c3C2=O)C(=O)N1 [Compound 311]
readoutNumber: 10

1 = Cc1cccc(C(=O)N[C@H]2C[C@@H](n3cnc4c(NCc5ccc(N6CCN(C(=O)CNc7ccc8c(c7)C(=O)N([C@H]7CCC(=O)NC7=O)C8=O)CC6)cc5)ncnc43)C2)n1 [Compound 149]
2 = O=C1CCC(N2C(=O)c3cccc(CCCCN4CCC(CN5CCN(c6ccc(Nc7ncnc8c7ncn8[C@H]7C[C@@H](NC(=O)c8cccc(F)n8)C7)cc6)CC5)CC4)c3C2=O)C(=O)N1 (some centres unmarked) [Compound 432]
Request: Among 1 and 2 , whose measured Enzyme degradation CDK2 (% remaining) @ 0.1 μM is the smaller figure? Kindly give the label for the entry you pick.
Response: 1
